Source: paper PMC8512054

Kindly state IC50 for each of the entries shown.
TARGET UNDER TEST: MAO-B (Homo sapiens, UniProt P27338)
Sequence (P27338 whole entry): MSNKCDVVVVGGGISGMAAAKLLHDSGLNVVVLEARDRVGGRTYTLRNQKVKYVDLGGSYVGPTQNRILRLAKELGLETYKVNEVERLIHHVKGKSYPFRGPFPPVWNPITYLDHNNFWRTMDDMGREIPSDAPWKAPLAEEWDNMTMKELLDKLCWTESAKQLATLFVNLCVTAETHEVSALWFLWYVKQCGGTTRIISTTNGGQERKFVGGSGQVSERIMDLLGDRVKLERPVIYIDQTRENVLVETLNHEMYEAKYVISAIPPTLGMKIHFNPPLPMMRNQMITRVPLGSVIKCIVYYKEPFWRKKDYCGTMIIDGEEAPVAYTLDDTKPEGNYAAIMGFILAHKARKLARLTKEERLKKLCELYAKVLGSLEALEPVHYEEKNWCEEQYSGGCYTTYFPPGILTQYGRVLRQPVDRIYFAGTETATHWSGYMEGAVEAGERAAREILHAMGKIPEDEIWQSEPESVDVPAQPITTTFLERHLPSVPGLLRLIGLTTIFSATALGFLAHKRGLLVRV
TEST NAME: MAO-B inhibitory assay (recombinant MAO-B, benzylamine substrate)
Answer with the figure and its unit, nothing else.

*Q* Can you share its IC50? I mean this compound: `O=C(C=Cc1ccc([N+](=O)[O-])cc1)Nc1ccc(F)cc1`
*A* 9.2 nM

*Q* Suppose we examine the compound Cc1ccccc1NC(=O)/C=C/c1ccc([N+](=O)[O-])cc1 [NEA5, 3-(4-Nitrophenyl)-N-(O-tolyl)acrylamide] ; what IC50 value has been reported?
*A* 38 nM

*Q* # get_value(readout='IC50', item= O=C(C=Cc1ccc([N+](=O)[O-])cc1)Nc1ccccc1 [NEA1, 3-(4-Nitrophenyl)-N-phenylacrylamide] )
*A* 16 nM

*Q* # lookup: IC50 of `O=C(C=Cc1ccc([N+](=O)[O-])cc1)Nc1ccc(Cl)cc1`
*A* 5280 nM

*Q* What value of measured IC50 is listed for O=C(C=Cc1ccc([N+](=O)[O-])cc1)NC1CCCCC1 [NEA4, N-Cyclohexyl-3-(4-nitrophenyl)acrylamide] ?
*A* 74 nM

* * *

TARGET UNDER TEST: MAO-B (Homo sapiens)
TEST NAME: MAO-B inhibitory assay (recombinant MAO-B, benzylamine substrate)
MEASUREMENT SETUP: read-out: % Residual Activity (at 10 µM) MAO-B
Lab note: cut-off is 10%. Strictly less in remaining activity at 10 µM is y. Exactly 10% or more is n.

*Q* Input O=C(C=Cc1ccc([N+](=O)[O-])cc1)NC1CCCCC1 [NEA4, N-Cyclohexyl-3-(4-nitrophenyl)acrylamide] ; condition: remaining activity at 10 µM strictly below 10%. Does it hold?
*A* y

*Q* Below 10% on remaining activity at 10 µM? Entry O=C(C=Cc1ccc([N+](=O)[O-])cc1)Nc1ccccc1 [NEA1, 3-(4-Nitrophenyl)-N-phenylacrylamide]
*A* y

*Q* Decide: remaining activity at 10 µM of `O=C(C=Cc1ccc([N+](=O)[O-])cc1)Nc1ccc(Cl)cc1` strictly below 10%?
*A* n

*Q* Lab note: remaining activity at 10 µM threshold 10%. Does this compound come in strictly under it? Cc1ccccc1NC(=O)/C=C/c1ccc([N+](=O)[O-])cc1 [NEA5, 3-(4-Nitrophenyl)-N-(O-tolyl)acrylamide]
*A* y

*Q* Hello, I'm reviewing records and need to know if remaining activity at 10 µM of `O=C(C=Cc1ccc([N+](=O)[O-])cc1)Nc1ccc(F)cc1` is below 10%. Could you check?
*A* y

* * *

BACE1 (Homo sapiens, UniProt P56817): recorded IC50 for assorted compounds
Sequence (P56817 46-501): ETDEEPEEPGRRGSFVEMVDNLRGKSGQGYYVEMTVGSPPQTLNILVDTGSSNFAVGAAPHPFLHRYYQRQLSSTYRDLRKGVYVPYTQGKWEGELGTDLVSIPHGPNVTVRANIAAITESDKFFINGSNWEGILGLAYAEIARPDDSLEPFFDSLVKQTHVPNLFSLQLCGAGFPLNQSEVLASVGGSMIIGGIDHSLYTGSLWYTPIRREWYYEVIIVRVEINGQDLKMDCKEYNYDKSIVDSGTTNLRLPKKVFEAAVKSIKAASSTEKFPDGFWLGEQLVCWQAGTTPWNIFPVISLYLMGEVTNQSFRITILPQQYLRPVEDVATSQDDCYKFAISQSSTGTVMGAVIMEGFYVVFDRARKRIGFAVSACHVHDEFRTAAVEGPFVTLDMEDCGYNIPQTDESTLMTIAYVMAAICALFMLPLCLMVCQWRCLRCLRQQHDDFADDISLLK
Record the value in µM, omitting the unit from your answer.

*Q* Give the reported IC50 for Cc1ccccc1NC(=O)/C=C/c1ccc([N+](=O)[O-])cc1 [NEA5, 3-(4-Nitrophenyl)-N-(O-tolyl)acrylamide] (system: BACE1 (Homo sapiens, UniProt P56817)).
*A* 17.7

*Q* Record O=C(C=Cc1ccc([N+](=O)[O-])cc1)Nc1ccccc1 [NEA1, 3-(4-Nitrophenyl)-N-phenylacrylamide] : what is its IC50 with BACE1 (Homo sapiens, UniProt P56817)?
*A* 8.21

* * *

TARGET UNDER TEST: recombinant MAO-A (Homo sapiens, UniProt P21397)
Sequence (P21397 whole entry): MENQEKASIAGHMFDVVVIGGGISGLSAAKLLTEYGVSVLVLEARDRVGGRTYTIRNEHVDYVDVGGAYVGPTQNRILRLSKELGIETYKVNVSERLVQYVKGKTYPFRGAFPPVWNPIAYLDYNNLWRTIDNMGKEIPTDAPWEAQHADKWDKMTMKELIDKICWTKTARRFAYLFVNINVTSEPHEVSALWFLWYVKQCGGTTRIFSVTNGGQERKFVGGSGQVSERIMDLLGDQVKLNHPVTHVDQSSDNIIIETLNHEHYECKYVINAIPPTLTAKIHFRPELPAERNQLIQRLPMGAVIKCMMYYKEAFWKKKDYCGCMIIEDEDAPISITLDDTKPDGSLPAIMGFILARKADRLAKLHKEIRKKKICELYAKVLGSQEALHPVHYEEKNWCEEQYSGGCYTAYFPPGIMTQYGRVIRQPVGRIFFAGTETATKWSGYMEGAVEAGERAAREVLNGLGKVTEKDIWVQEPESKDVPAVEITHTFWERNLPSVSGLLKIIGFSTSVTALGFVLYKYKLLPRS
TEST NAME: MAO-A inhibitory assay (recombinant MAO-A, kynuramine substrate)
MEASUREMENT SETUP: read-out: % Residual Activity (at 10 µM) MAO-A
Assign remaining activity at 10 µM to each entry below.
Please give a number only; it is taken to be in %.

*Q* Reported remaining activity at 10 µM, compound O=C(C=Cc1ccc([N+](=O)[O-])cc1)NC1CCCCC1 [NEA4, N-Cyclohexyl-3-(4-nitrophenyl)acrylamide] : ____
*A* 85.6

*Q* Find the recorded remaining activity at 10 µM belonging to O=C(C=Cc1ccc([N+](=O)[O-])cc1)Nc1ccc(F)cc1 [NEA3] and report it.
*A* 61.9

*Q* What does the record list as remaining activity at 10 µM for O=C(C=Cc1ccc([N+](=O)[O-])cc1)Nc1ccccc1 [NEA1, 3-(4-Nitrophenyl)-N-phenylacrylamide] ?
*A* 91.9

*Q* What value of remaining activity at 10 µM has been reported for the following compound? Cc1ccccc1NC(=O)/C=C/c1ccc([N+](=O)[O-])cc1 [NEA5, 3-(4-Nitrophenyl)-N-(O-tolyl)acrylamide]
*A* 83.5

*Q* Record request: remaining activity at 10 µM value, item O=C(C=Cc1ccc([N+](=O)[O-])cc1)Nc1ccc(Cl)cc1 [NEA2]
*A* 95

* * *

TARGET UNDER TEST: recombinant MAO-A (Homo sapiens, UniProt P21397)
TEST NAME: MAO-A inhibitory assay (recombinant MAO-A, kynuramine substrate)
pIC50: −log10 of the molar value.
QUANTITY MEASURED: pIC50

*Q* May I ask what pIC50 has been recorded for O=C(C=Cc1ccc([N+](=O)[O-])cc1)Nc1ccccc1 [NEA1, 3-(4-Nitrophenyl)-N-phenylacrylamide] ?
*A* < 4.40

*Q* Fill in the blank: the reported pIC50 of O=C(C=Cc1ccc([N+](=O)[O-])cc1)NC1CCCCC1 [NEA4, N-Cyclohexyl-3-(4-nitrophenyl)acrylamide] is ____.
*A* < 4.40

*Q* Name the recorded pIC50 for O=C(C=Cc1ccc([N+](=O)[O-])cc1)Nc1ccc(Cl)cc1 [NEA2] .
*A* < 4.40

*Q* Recorded pIC50 for O=C(C=Cc1ccc([N+](=O)[O-])cc1)Nc1ccc(F)cc1 [NEA3] , please?
*A* 4.82

*Q* What does the record list as pIC50 for Cc1ccccc1NC(=O)/C=C/c1ccc([N+](=O)[O-])cc1 [NEA5, 3-(4-Nitrophenyl)-N-(O-tolyl)acrylamide] ?
*A* < 4.40

* * *

Kindly supply the reported melting point values for the records listed here.

*Q* Given `O=C(C=Cc1ccc([N+](=O)[O-])cc1)Nc1ccc(F)cc1` , state its recorded melting point.
*A* 208 to 210 °C

*Q* Look at this molecule and give its reported melting point. `O=C(C=Cc1ccc([N+](=O)[O-])cc1)Nc1ccc(Cl)cc1`
*A* 224 to 226 °C

*Q* Which melting point is listed for Cc1ccccc1NC(=O)/C=C/c1ccc([N+](=O)[O-])cc1 [NEA5, 3-(4-Nitrophenyl)-N-(O-tolyl)acrylamide] ?
*A* 200 to 203 °C

*Q* // returns reported melting point for input O=C(C=Cc1ccc([N+](=O)[O-])cc1)NC1CCCCC1 [NEA4, N-Cyclohexyl-3-(4-nitrophenyl)acrylamide]
*A* 166 to 168 °C

* * *

Would you kindly list Selectivity index (SI) for MAO-B as compared with MAO-A for each of these compounds?
TARGET UNDER TEST: MAO-B (Homo sapiens)
TEST NAME: MAO-B inhibitory assay (recombinant MAO-B, benzylamine substrate)
MEASUREMENT SETUP: from the IC50 values of MAO-A and MAO-B

*Q* Item O=C(C=Cc1ccc([N+](=O)[O-])cc1)NC1CCCCC1 [NEA4, N-Cyclohexyl-3-(4-nitrophenyl)acrylamide] has what recorded Selectivity index (SI) for MAO-B as compared with MAO-A?
*A* >540.5

*Q* Reported Selectivity index (SI) for MAO-B as compared with MAO-A for `O=C(C=Cc1ccc([N+](=O)[O-])cc1)Nc1ccc(Cl)cc1` : what is it?
*A* >7.58

*Q* // lookup Selectivity index (SI) for MAO-B as compared with MAO-A for Cc1ccccc1NC(=O)/C=C/c1ccc([N+](=O)[O-])cc1 [NEA5, 3-(4-Nitrophenyl)-N-(O-tolyl)acrylamide]
*A* >1052.6

*Q* Sample `O=C(C=Cc1ccc([N+](=O)[O-])cc1)Nc1ccc(F)cc1` — what was its Selectivity index (SI) for MAO-B as compared with MAO-A?
*A* 1652.2

*Q* Sample O=C(C=Cc1ccc([N+](=O)[O-])cc1)Nc1ccccc1 [NEA1, 3-(4-Nitrophenyl)-N-phenylacrylamide] — what was its Selectivity index (SI) for MAO-B as compared with MAO-A?
*A* >2500.0
